Molecular target: T1, epidermal growth factor receptor (EGFR), wild type (human, UniProt P00533 25-1210)
T1 construct: whole, on cells; The target is inferred from tumour cell lines that overexpress EGFR, compared with EGFR-negative cells; No purified receptor was used; also called EGFRWT; EGFR WT
Assay: flow cytometry, 2.5 uM FITC-peptide on H1299 cells (EGFR overexpressing)
Bridge positions count the residues as written; N and C are the ends. * marks the point of attachment. FITC = O=C1OC2(c3ccc(O)cc3Oc3cc(O)ccc32)c2ccc(NC(=S)*)cc21; GABA = NCCCC(=O)O
observable: binding result

[[record]]
binder = "{FITC-GABA}-CSAETVESC-NH2 (disulfide 1-9; SMILES CC(C)[C@@H]1NC(=O)[C@H]([C@@H](C)O)NC(=O)[C@H](CCC(=O)O)NC(=O)[C@H](C)NC(=O)[C@H](CO)NC(=O)[C@@H](NC(=O)CCCNC(=S)Nc2ccc3c(c2)C(=O)OC32c3ccc(O)cc3Oc3cc(O)ccc32)CSSC[C@@H](C(N)=O)NC(=O)[C@H](CO)NC(=O)[C@H](CCC(=O)O)NC1=O, also called FITC-labeled P2) [FITC-labeled cyclic peptide P2, c(CSAETVESC)]"
experimentalvalue = "binds"

[[record]]
binder = "{FITC-GABA}-CAQYTPGRC-NH2 (disulfide 1-9; SMILES C[C@@H]1NC(=O)[C@@H](NC(=O)CCCNC(=S)Nc2ccc3c(c2)C(=O)OC32c3ccc(O)cc3Oc3cc(O)ccc32)CSSC[C@@H](C(N)=O)NC(=O)[C@H](CCCNC(=N)N)NC(=O)CNC(=O)[C@@H]2CCCN2C(=O)[C@H]([C@@H](C)O)NC(=O)[C@H](Cc2ccc(O)cc2)NC(=O)[C@H](CCC(N)=O)NC1=O, also called FITC-labeled P11) [FITC-labeled cyclic peptide P11, c(CAQYTPGRC)]"
experimentalvalue = "binds"

